Taken from patent US20250154283A1.

# system-tested: T1, biotinylated cynomolgus monkey VWF cysteine knot (CK) domain construct (cynomolgus monkey, biotinylated in vitro (BirA) on the biotinylation tag; one N-glycan)
# T1 construct: Expressed in HEK293 EBNA cells; disulfide-linked homodimer; also called cyno VWF CK; cyno VWF CK domain; not shown: in vitro biotinylation tag, HRV-3C site and 3 VWF residues before the CK domain
# T1 chain: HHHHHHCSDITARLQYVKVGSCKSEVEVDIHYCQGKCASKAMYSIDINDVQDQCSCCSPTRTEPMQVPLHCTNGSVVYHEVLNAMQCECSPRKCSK
# assay-name: SPR, scFv captured via anti-SV5, CK domain injected, pH 7.4, apparent Kd;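 further: scFvs from crude yeast supernatants printed on an amine-coupled anti-SV5 lawn, Kd computed as koff over kon, likely overestimating affinity because the CK construct is dimeric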
measurement-name: pKd
Please report pKd as the negative decimal logarithm of the molar concentration, giving only the number.

Please review the following examples before continuing.
>>> reported_measurement("96_Lib4_scFv (scFv, VH-linker-VL; not shown: C-terminal 3xFLAG and SV5 tags) scFv: QVQLQESGPGLVKPSQTLSLTCTVSGESFSTSYWSWIRQPPGKGLEWIGYITHSGYTDYNPSLKSRVTMSVDTSKNQFSLKVNSVTAADTAVYYCARGGRFPFWYFDLWGRGSLVTVSSSGGSTITSYNVYYTKLSSSGTEIVMTQSPATLSLSPGERATLSCRASRSIGSNLAWYQQKPGQAPRLLIYGATTRATGIPARFSGSGSGTDFTLTISSLEPEDFAVYYCQQYKNDATFGGGTKVEIK")
8.92
>>> reported_measurement("Lib4_P2_A2_scFv (scFv, VH-linker-VL; not shown: C-terminal 3xFLAG and SV5 tags) scFv: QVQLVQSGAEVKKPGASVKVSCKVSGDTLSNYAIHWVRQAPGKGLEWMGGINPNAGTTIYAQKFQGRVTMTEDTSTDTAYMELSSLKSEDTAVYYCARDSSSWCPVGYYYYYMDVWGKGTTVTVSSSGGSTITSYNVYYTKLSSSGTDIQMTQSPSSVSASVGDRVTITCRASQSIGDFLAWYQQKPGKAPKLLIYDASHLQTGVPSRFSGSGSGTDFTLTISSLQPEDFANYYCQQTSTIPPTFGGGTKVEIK")
9.52
>>> reported_measurement("Lib8_P4_D4_scFv (scFv, VH-linker-VL; not shown: C-terminal 3xFLAG and SV5 tags) scFv: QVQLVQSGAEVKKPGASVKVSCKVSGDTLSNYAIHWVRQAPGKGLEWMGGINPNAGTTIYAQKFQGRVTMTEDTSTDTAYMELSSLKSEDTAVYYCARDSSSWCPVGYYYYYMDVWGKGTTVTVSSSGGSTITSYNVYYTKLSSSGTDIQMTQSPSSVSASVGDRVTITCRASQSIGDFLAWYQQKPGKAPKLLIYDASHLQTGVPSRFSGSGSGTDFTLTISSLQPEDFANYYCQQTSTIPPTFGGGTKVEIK")
9.69
>>> reported_measurement("Lib4_P2_A10_scFv (scFv, VH-linker-VL; not shown: C-terminal 3xFLAG and SV5 tags) scFv: QVQLQESGPGLVKPSQTLSLTCTVSGASLGHQYWSWIRQPPGKGLEWIGYIDTSGSTDYNPSLKSRVTMSVDTSKNQFSLKVNSVTAADTAVYYCARVANYYYYMDVWGKGTTVTVSSSGGSTITSYNVYYTKLSSSGTEIVMTQSPATLSLSPGERATLSCRASQSVSNRLAWYQQKPGQAPRLLIYDASNRATGIPARFSGSGSGTDFTLTISSLEPEDFAVYYCQQYFITPSTFGGGTKVEIK")
9.13
>>> reported_measurement("4029_Lib1_scFv (scFv, VH-linker-VL; not shown: C-terminal 3xFLAG and SV5 tags) scFv: QVQLVQSGAEVKKPGASVKVSCKVSGYPFTSSGIHWVRQAPGKGLEWMGGVIPLFGTANYAQKFQGRVTMTEDTSTDTAYMELSSLKSEDTAVYYCARIRVSSGWYRDYGMDVWGQGTTVTVSSSGGSTITSYNVYYTKLSSSGTDIQMTQSPSSVSASVGDRVTITCRASQSIGDFLAWYQQKPGKAPKLLIYDASHLQTGVPSRFSGSGSGTDFTLTISSLQPEDFANYYCQQTSTIPPTFGGGTKVEIK")
8.33
>>> reported_measurement("189_Lib4_scFv (scFv, VH-linker-VL; not shown: C-terminal 3xFLAG and SV5 tags) scFv: QVQLQESGPGLVKPSQTLSLTCTVSGVTFSSYGWSWIRQPPGKGLEWIGYVDTSGSTDYNPSLKSRVTMSVDTSKNQFSLKVNSVTAADTAVYYCARTTYYYDSSGFARGWFDPWGQGTLVTVSSSGGSTITSYNVYYTKLSSSGTEIVMTQSPATLSLSPGERATLSCRASQSVPSSHLAWYQQKPGQAPRLLIYDATNRAAGIPARFSGSGSGTDFTLTISSLEPEDFAVYYCQQYDNWPSPSFGGGTKVEIK")
9.36

Input Lib1_P1_C6_scFv (scFv, VH-linker-VL; not shown: C-terminal 3xFLAG and SV5 tags) scFv: QVQLVQSGAEVKKPGASVKVSCKVSGYTFASHYIHWVRQAPGKGLEWMGGMDPATGQTIYAQKFQGRVTMTEDTSTDTAYMELSSLKSEDTAVYYCAKGDRSSWYEVLSFQHWGQGTLVTVSSSGGSTITSYNVYYTKLSSSGTDIQMTQSPSSVSASVGDRVTITCRASQGISTDLAWYQQKPGKAPKLLIYDASILQRGVPSRFSGSGSGTDFTLTISSLQPEDFANYYCQQVRTYPFTFGGGTKVEIK . Output pKd: 9.16

Value of measured pKd for the entry 3552_Lib8_scFv (scFv, VH-linker-VL; not shown: C-terminal 3xFLAG and SV5 tags) scFv: EVQLVESGGGLVQPGRSLRLSCAASEFTFGDYDMHWVRQAPGKGLEWVSAISSSGSNRDYADSVEGRFTISRDNAKNSLYLQMNSLRAEDTAVYYCARDAWFGDAFDIWGQGTMVTVSSSGGSTITSYNVYYTKLSSSGTDIQMTQSPSSLSASVGDRVTITCRASESVSSWLAWYQQKPGKAPKLLIYGASTLEGGVPSRFSGSGSGTDFTLTISSLQPEDVATYYCQQSYSFPDFGGGTKVEIK : 10.74

Lib1_P1_F10_scFv (scFv, VH-linker-VL; not shown: C-terminal 3xFLAG and SV5 tags) scFv: QVQLVQSGAEVKKPGASVKVSCKVSGYTFSSSGIHWVRQAPGKGLEWMGGIFPNFGTAIYAQKFQGRVTMTEDTSTDTAYMELSSLKSEDTAVYYCARESDFWSGSFTNWGQGTLVTVSSSGGSTITSYNVYYTKLSSSGTDIQMTQSPSSVSASVGDRVTITCRASRSIGNWLAWYQQKPGKAPKLLIYDAFNRASGVPSRFSGSGSGTDFTLTISSLQPEDFANYYCQQSYSTLPRYSFGGGTKVEIK has a reported pKd of 8.82
